Data origin, for the record: patent US20190177419A1

# ASSAYED SYSTEM: T1, recombinant human Axl-Fc chimera (R&D Systems, Cat. no. 154-AL) (human, UniProt P30530 26-451)
# T1 construct: extracellular domain; Bought reagent; also called rhAxl-Fc; rhAxl; not shown: Fc part (and any linker or tag) of the bought chimera; not described
# MEASUREMENT PROTOCOL: SPR, Biacore 3000, 25 C, rhAxl-Fc immobilised on CM5 (190 RU), antibody injected, 1:1 Langmuir model
# Protocol: The precise kinetic analysis was performed using BIA evaluation software and curve fitting according to 1:1 Langmuir binding model.
VALUE KIND: koff (s⁻¹)
# number only, unit s⁻¹ dropped from output

Query mouse monoclonal antibody 10C9 (from hybridoma UT-10C9-B9) (antibody, IgG2b, V domains shown, Whole mouse antibody purified from hybridoma supernatant; Possible N-glycosylation site (NFT) in CDR-H1; also called MAb 10C9) VH: QVQLQQPGPELVKPGASVKISCKTSDYNFTRYYIHWVKQRPGQGLEWIGWIYPGTGDSKYNEKFKGRATLTADTSSSTAYMQLSSQTSEDSAVYFCARNGNYWYFDVWGAGTAVTVSS VL: DIVMTQAAPSGPVTPGESVSISCRSSKSLLHSNGNTYLYWFLQRPGQSPQLLIYRMSNLASGVPDRFSGSGSGTAFTLRISRVEAEDVGIYYCMQHREYPFTFGGGTKLEIK yields koff of 0.000289
